Values from patent US20260242478A1

assayed.target: T1, Anti-PSMA Fab (SEQ ID NOs: 19, 20)
T1 construct: also called 006 PSMA Fab
protocol.summary: phage binding ELISA; clonal phage supernatant on biotinylated PSMA Fab captured on neutravidin plate, wells pre-incubated with PSMA antigen (competitor: PSMA); anti-M13-HRP detection
Some binders, each annotated with its measured Anti-PSMA Fab signal in the presence of PSMA.
Keep the answer to the number alone.

# example entries with known answers
binder	measurement
VEKWCVPQWMCGQM [Phage-1942]	0.0869
TEMWCKPSWMCYGF [Phage-1946]	0.101

# ---- query binder ----
Look up Anti-PSMA Fab signal in the presence of PSMA for this binder: ARRSCVFRRGCVFM [Phage-1950]
0.0701
